Ref: ChEMBL document CHEMBL5247638

IC50 for assorted compounds
Target: Cruzipain (Trypanosoma cruzi, UniProt P25779)
Sequence (P25779 whole entry): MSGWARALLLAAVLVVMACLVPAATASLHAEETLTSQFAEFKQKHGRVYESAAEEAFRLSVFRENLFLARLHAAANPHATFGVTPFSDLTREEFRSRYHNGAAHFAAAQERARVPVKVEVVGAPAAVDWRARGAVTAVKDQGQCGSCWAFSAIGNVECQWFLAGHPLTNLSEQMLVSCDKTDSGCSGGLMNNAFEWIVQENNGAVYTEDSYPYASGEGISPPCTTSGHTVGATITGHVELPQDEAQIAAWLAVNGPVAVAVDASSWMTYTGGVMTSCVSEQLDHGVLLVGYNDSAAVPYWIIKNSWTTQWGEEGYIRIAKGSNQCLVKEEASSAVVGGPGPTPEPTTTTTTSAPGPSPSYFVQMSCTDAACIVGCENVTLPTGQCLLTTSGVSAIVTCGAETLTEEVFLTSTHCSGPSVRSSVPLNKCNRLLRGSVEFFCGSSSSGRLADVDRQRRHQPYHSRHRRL
Reply numerically in µM, unit not repeated.

Some solved entries appear below for comparison.
OCCNCc1ccc(-c2ccc(Br)cc2Cl)o1
51
OCC(CO)NCc1ccc(-c2ccc(Br)cc2Cl)o1
149
NC(=S)N/N=C/c1ccc(-c2ccc(Br)cc2Cl)o1
0.45
OCC(CO)NCc1ccc(-c2ccc(Cl)c(C(F)(F)F)c2)o1
133

# input for lookup
# get_value(readout= IC50, system= Cruzipain (Trypanosoma cruzi, UniProt P25779)) for Clc1cc(Br)ccc1-c1ccc(CNCCN2CCOCC2)o1
92
